# System: MCF-7
# experiment: MTT assay, MCF-7 breast cancer cell line
# Format: cell-based, human
# settings: Homo sapiens, MCF7; MCF-7, MTT; read-out: IC50
readoutLabel: pIC50
Please express pIC50 as -log10 of the molar concentration.

pIC50 for Cc1c(F)c(N)c2c(=O)cc(-c3ccc(NC(=O)[C@@H](N)CCCCN)c(F)c3)oc2c1F ?
7.80

---

# Tested on: HCC1937
# experiment: MTT assay, HCC1937 breast cancer cell line
# Type: cell-based
# settings: Homo sapiens, 120 h; HCC1937, 5 day continuous exposure, MTT; read-out: IC50
pIC50: −log10 of the molar value.
readoutLabel: pIC50

pIC50 for Cc1c(F)c(N)c2c(=O)cc(-c3ccc(NC(=O)[C@@H](N)CCCCN)c(F)c3)oc2c1F ?
6.70 to 8.00

Recorded values, source patent US20100016421A1.
